Reference source for all entries: PubChem BioAssay (NCI)

growth by entry:
Tested on: OVCAR-3 ovarian
Experiment: NCI-60 one-dose screen, 48 h (100 = growth as untreated, 0 = no growth, -100 = all killed)
Details: 10 µM unless noted
This is part of a sample that, as a whole, favours compounds with a hit. Of some 83,000 tested, about 20% had one in any assay.
Just the number please, in %, no unit attached.

Here are 4 molecules together with their reported answers.
>>> df
                                smiles_code  assay_value
0  COc1ccc(-c2cc(=O)c3c(OC)c4ccoc4cc3o2)cc1          106
1  CCCCn1cnc2c(Sc3c([N+](=O)[O-])ncn3C)nc(N)nc21          103
2  CSc1nc2c(c(=O)[nH]1)C1(C(=O)Nc3ccccc31)c1c(nc(SC)[nH]c1=O)N2          105
3  Cc1c(/C=C/[N+](=O)[O-])ccc2c1[nH]c1ccccc12          123

Pending molecule:
growth value, target or system OVCAR-3 ovarian, for "COc1cccc(NC(=O)c2sc3nc(C)c(C(C)=O)cc3c2N)c1" : 17.8

###

System: HCT-15 colon
Experiment: NCI-60 one-dose screen, 48 h (100 = growth as untreated, 0 = no growth, -100 = all killed)
Conditions: 10 µM unless noted
Compounds without any hit were thinned out: in the full panel of roughly 83,000, 20% have a hit.
Reported growth by item:
Could you give me the number in %? Just the number is fine.

Worked examples follow.
>>> print(df.to_string())
                                smiles_code  units  assay_value
0  COc1cccc(/C=C2\Oc3cc(OCCN4CCCC4)ccc3C2=O)c1      %           67
1        COc1ccc(CN2c3ccccc3Oc3ccccc32)cc1O      %         28.1
2  COc1cccc(-c2nc(SCC(=O)Nc3ccc(C(=O)/C=C/c4ccc(OC)c(OC)c4)cc3)[nH]c(=O)c2C#N)c1      %         83.6
3  COc1cccc(Nc2nc(SC)nc(-c3cccc([N+](=O)[O-])c3)c2C#N)c1      %         79.2

Below: the item to evaluate.
Sample "COc1cc(/C=C/C(=O)Nc2cccnc2Nc2ccc(F)cc2)cc(OC)c1OC" ; growth observed: 99

###

Tested on: NCI-H23 lung
Test: NCI-60 one-dose screen, 48 h (100 = growth as untreated, 0 = no growth, -100 = all killed)
Settings: 10 µM unless noted
Compounds without any hit were thinned out: in the full panel of roughly 83,000, 20% have a hit.
Lab note: compare growth against 40%. Equal or greater, write class 1. Smaller, write class 0.

Consider the worked cases shown below.
compound	target_entity	class_name
Cc1nn(-c2cc(=O)[nH]c3ccccc23)c(N)c1C#N	NCI-H23 lung	class 1
CC1=C[C@H]2c3c(c(O)c(O)c4oc5ccccc5c(=O)c34)[C@H](c3cc(O)c(O)c4oc5ccccc5c(=O)c34)[C@H]2C(C)(C)C1	NCI-H23 lung	class 0
COc1ccc(C2CC(c3ccc(Cl)cc3)=NN2/C=C2\SC(=S)N(NC(=O)Cc3ccccc3Nc3c(Cl)cccc3Cl)C2=O)cc1 (stereo not drawn)	NCI-H23 lung	class 1

Record "Cc1ncc(C(=O)Nc2ccc(CN3CCN(C)CC3)c(C(F)(F)F)c2)cc1C#Cc1cnc2cccnn12" ; criterion: growth no lower than 40%. Met?
class 0

Say whether "CC1=CC(C)(C)Nc2ccc(Cc3ccc4c(c3)C(C)=CC(C)(C)N4)cc21" shows growth of 40% or more.
class 1

###

Test system: TK-10 renal
Test: NCI-60 one-dose screen, 48 h (100 = growth as untreated, 0 = no growth, -100 = all killed)
Conditions: 10 µM unless noted
About 83,000 compounds went through this panel and 20% of them were active in at least one assay; those are over-represented in the sample as a whole.
endpoint_label: growth (%)
Return type: number; implicit unit %.

>>> df
                                   compound  target_entity  units  assay_value
0  Cc1ccc2c(C(C[N+](=O)[O-])c3ccco3)c(-c3ccccc3)[nH]c2c1 (centres undefined)    TK-10 renal      %         64.2
1            Cc1cc2nc3[nH]c4ccccc4c3nc2cc1C    TK-10 renal      %          107
2  CCCn1c(=O)[nH]c(N)c([C@H]2c3ccccc3Oc3[nH]c(=O)n(CCC)c(=O)c32)c1=O    TK-10 renal      %           79

Consider "O=C(/C=C/c1ccccc1)c1ccc(O)c(CN2CCN(c3cc4c(cc3F)c(=O)c(C(=O)O)cn4C3CC3)CC2)c1" . Its measured growth is 62.7

###

System: OVCAR-3 ovarian
Experiment: NCI-60 one-dose screen, 48 h
Settings: 10 µM unless noted
About 83,000 compounds went through this panel and 20% of them were active in at least one assay; those are over-represented in the sample as a whole. Activity calls are given as the source filed them. The calls were made as follows: active = growth percent below 10; inactive = the rest.
Outcome (select one): active, inactive

molecule	class_name
O=C1C=CC(=O)N1c1ccc2c(c1)Cc1cc(F)ccc1-2	inactive

Test call for this molecule, please: "O=C1/C(=C/c2ccc(OCCCOc3ccc(Cl)cc3)cc2)N=C2SCCCN12"
inactive

Name the outcome recorded for "CCCCCCCCCCCCC[N+](C)(C)Cc1ccccc1" in the assay.
active

Lab log entry: C=C(C)C1CC(O)C2(C)CCCC3C2C1CC(C)C3(C)CC/C(C)=C/C(O)C1CCC(=O)c2c(OC)cc(OC)cc21 (stereo not given) — outcome as called in the assay?
inactive

Check the results log: what was the call for "CCOc1ccc(C(C)=O)cc1NC(=O)c1cccc(-c2nnn(CC)n2)c1" ?
active

Call for entry "NC(=NCCCC1(c2ccccc2)CCCC1)Nc1ccc(Cl)cc1" :
inactive

Any idea what this test logged for Cc1ccc(C2Oc3ccccc3C3CC(c4cccs4)=NN32)cc1 (stereo not given) ?
inactive

Could you check what this test reported for "CN(C)C(=S)N=Nc1c(O)[nH]c2ccccc12" ?
active

GET /call?item= "CCN=C1C=CC(=C(c2ccc(N)cc2)c2ccc(N(CC)CC)c(C)c2)C=C1" returns the recorded outcome of this test.
active

So what was the verdict on "O=C(Nc1ccccc1Cl)c1ccc(NC2=C(Cl)C(=O)N(C3CCCCC3)C2=O)cc1" in this test?
inactive

Field: outcome | Entry: "COc1ccc(O)c(N=Nc2nccs2)c1"
inactive

Please let me know the test result on file for "CN(C)c1ccc(N=Nc2ccc(Br)cn2)c(O)c1" .
inactive

Test call, this molecule: "O=S(=O)(Nc1ccc(Cl)c(F)c1)c1ccc(-c2cnc(C3CC3)o2)cc1"
active

For "Cc1cc(N2CCN(c3ccnc4cc(Cl)ccc34)CC2)nc(N2CCOCC2)n1" , what call appears in the results of this test?
inactive

# lookup: test call for "CCOC(=O)c1c(C(=O)OCC)c2cc(-c3ccn4c(C(=O)c5ccccc5)c(C(=O)OCC)c(C(=O)OCC)c4c3)ccn2c1C(=O)c1ccccc1"
inactive

Status in this test for "Cc1ccc(O)c(N2C(=NCc3ccco3)NS(=O)(=O)c3cnccc32)c1" ?
inactive

Fill in: this test's call for "O=C1c2ccccc2OC=C(c2ccccc2)N1CCCCNc1ccc(S(=O)(=O)Nc2ncccn2)cc1" is ___
inactive

Name the outcome recorded for "NCCNc1nc(Nc2ccc(-c3nc4ccccc4[nH]3)cc2)c2cn[nH]c2n1" in the assay.
inactive

# fetch the recorded call for "Cn1cc(C(=O)c2nc(-c3c[nH]c4ccccc34)no2)c2ccccc21" here
inactive

Tell me the assay call for "COc1cc2c(cc1O)CC[C@@H]1[C@@H]2CC[C@]2(C)[C@@H](OCCN(C)C)CC[C@@H]12" please.
inactive

Query: recorded result category for Nc1n[nH]c2ccc([C@@H]3Nc4cc5c(cc4[C@H]4C6CCC(C6)[C@@H]34)C(=O)NC5)cc12 (stereo not given in full) in this test
active

Which result was noted for this molecule in the test: Cc1ccc(C2=NN3C(C2)c2cc(Br)ccc2OC32CCN(Cc3ccccc3)CC2)o1 (stereo not given)
inactive

Assay result, entry "COc1cc2nc(N3CCCC3)nc(NCCc3ccccc3)c2cc1OC" — outcome?
inactive

Query: recorded result category for "Nc1ccn(-c2ccc(Br)cc2)c(=O)n1" in this test
inactive

Just curious, what result did "COc1cccc(-c2nc3sccn3c2-c2ccnc(NCCNS(=O)(=O)c3ccc(F)cc3)c2)c1" get here?
inactive

Would you mind telling me which call this test gave "Nc1nc2ncc(CCNc3ccc(C(=O)O)cc3)nc2c(=O)[nH]1" ?
inactive

###

Tested on: COLO 205 colon
Test: NCI-60 one-dose screen, 48 h
Details: 10 µM unless noted
This is part of a sample that, as a whole, favours compounds with a hit. Of some 83,000 tested, about 20% had one in any assay. Activity calls are given as the source filed them. How the source made its calls: active means growth percent below 10; inactive means the rest.
Classes to choose from: YES (active), NO (inactive)

Consider the following illustrative entries.
>>> print(df.to_string())
                                   molecule  class_name
0     CC(=O)c1nc2ccccc2n1CC(=O)c1cccc(Cl)c1          NO
1  CS(=O)(=O)c1ccc(-n2nc(-c3ccc(Br)cc3)c3ccccc3c2=O)cc1          NO
2  CN1CCN(c2ccc3nc(-c4ccc(OCCCCN5CCN(CCCCN6C(=O)c7cccc8cccc(c78)C6=O)CC5)cc4)[nH]c3c2)CC1          NO
3  CCOC(=O)C(C)(C#N)C1C=CCCC1 (centres undefined)          NO
4  O=C1/C(=C/N2N=C(c3ccc4ccccc4c3)CC2c2ccccc2O)SC(=S)N1c1cccnc1 (centres undefined)          NO
5  O=C(/C=C/c1cccc([N+](=O)[O-])c1)c1ccc(O)c(CN2CCN(c3cc4c(cc3F)c(=O)c(C(=O)O)cn4C3CC3)CC2)c1          NO
6  CC/C=C\C/C=C\C[C@H]1C/C=C2/C(=O)C=C[C@@H]2C/C=C\CCC(=O)O1         YES
7  CCOC(=O)n1cc(-c2nonc2-c2cn(C)c3ncccc23)c2ccccc21          NO

Lab log entry: "C=CC(=O)Nc1cccc(Nc2nc(SC)nc(-c3cccc([N+](=O)[O-])c3)c2C#N)c1" — outcome as called in the assay?
NO

Status in this test for "CCCCC[C@H]1C/C=C2/C(=O)C=C[C@@H]2C/C=C\CCCC(=O)O1" ?
YES

Would you mind telling me which call this test gave "Cc1cc(C)nc(SC2=C(Nc3cccc(Cl)c3)C(=O)N(Cc3ccccc3)C2=O)n1" ?
NO

Test call, this molecule: "NC(=O)c1cc(Cl)ccc1NC(=O)/C=C/c1ccccc1"
YES
